For UniProt:P14780, measured pIC50 is reported for the entries below.
In plain terms, pIC50 is the concentration in mol/L turned into minus its base-10 logarithm.

Exercise: Under UniProt:P14780, report pIC50 for C=C[C@H](C(=O)N[C@@H](CCSC)C(=O)O)[C@H](O)CCCC [Compound 7]
Key: 3.48

Exercise: State pIC50 on UniProt:P14780. Entry: C=C[C@H](C(=O)N[C@@H](Cc1ccccc1)C(=O)NC1CCCCC1)[C@@H](C)O [Compound 1]
Key: 4.74

Exercise: Lab note: UniProt:P14780 assay, enter pIC50 for C=C[C@H](C(=O)N[C@@H](Cc1ccccc1)C(=O)NO)[C@H](O)c1cc(OCc2ccc(OC)cc2)n(-c2ccccc2)n1 [Compound 5] here
Key: 4.70

Exercise: # return pIC50 for C=C[C@H](C(=O)N[C@@H](CC(=O)O)C(=O)O)[C@H](O)c1cc(OCc2ccc(OC)cc2)n(-c2ccccc2)n1 [Compound 6] , test system: UniProt:P14780
Key: 4.88

* * *

metalloelastase MMP-12 (Homo sapiens): reported pKi for various molecules.
Sequence (P39900 106-470): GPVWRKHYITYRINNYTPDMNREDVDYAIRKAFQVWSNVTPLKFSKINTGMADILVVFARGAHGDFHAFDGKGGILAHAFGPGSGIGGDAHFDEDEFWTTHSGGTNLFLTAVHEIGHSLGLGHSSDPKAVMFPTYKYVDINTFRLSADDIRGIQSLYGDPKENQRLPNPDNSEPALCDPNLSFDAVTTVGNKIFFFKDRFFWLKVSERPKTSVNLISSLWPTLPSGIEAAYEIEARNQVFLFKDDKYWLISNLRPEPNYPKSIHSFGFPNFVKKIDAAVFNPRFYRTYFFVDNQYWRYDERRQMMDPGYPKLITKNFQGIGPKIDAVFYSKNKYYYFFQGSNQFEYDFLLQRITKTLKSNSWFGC
The scale used: pKi is minus the common logarithm of the concentration in molar units.

Exercise: Assign pKi to the following record: C=C[C@H](C(=O)N[C@@H](Cc1ccccc1)C(=O)NC1CCCCC1)[C@H](O)c1ccc(-c2ccccc2)cc1
Key: 4.99

Exercise: Respond only with pKi recorded for C=C[C@H](C(=O)N[C@@H](Cc1ccccc1)C(=O)NC1CCCCC1)[C@H](O)c1cc(OCc2ccc(OC)cc2)n(-c2ccccc2)n1
Key: 5.43

Exercise: Look up and state reported pKi for C=C[C@H](C(=O)N[C@@H](CC(=O)O)C(=O)O)[C@H](O)c1cc(OCc2ccc(OC)cc2)n(-c2ccccc2)n1
Key: 5.49

* * *

biological target: gelatinase MMP-9 (Homo sapiens, UniProt P14780)
Sequence (P14780 94-707): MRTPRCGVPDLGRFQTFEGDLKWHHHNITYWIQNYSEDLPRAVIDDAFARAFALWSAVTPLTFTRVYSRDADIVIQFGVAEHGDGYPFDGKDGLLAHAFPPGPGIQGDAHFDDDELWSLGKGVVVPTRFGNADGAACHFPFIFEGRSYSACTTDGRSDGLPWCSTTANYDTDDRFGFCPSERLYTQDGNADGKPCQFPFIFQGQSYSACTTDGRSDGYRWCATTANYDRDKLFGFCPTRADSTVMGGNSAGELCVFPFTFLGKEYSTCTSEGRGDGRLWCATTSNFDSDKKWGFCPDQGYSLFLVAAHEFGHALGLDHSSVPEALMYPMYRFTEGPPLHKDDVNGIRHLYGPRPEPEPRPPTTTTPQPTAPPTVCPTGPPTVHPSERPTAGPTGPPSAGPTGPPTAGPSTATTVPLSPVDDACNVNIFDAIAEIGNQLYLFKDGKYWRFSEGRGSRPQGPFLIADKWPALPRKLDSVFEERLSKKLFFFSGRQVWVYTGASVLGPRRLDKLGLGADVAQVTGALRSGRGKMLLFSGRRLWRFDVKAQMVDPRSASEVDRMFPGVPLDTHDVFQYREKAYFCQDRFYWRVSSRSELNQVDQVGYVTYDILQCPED
valueKind: pKi
# log scale: pKi equals minus log10 of the concentration in mol/L

Exercise: Check gelatinase MMP-9 (Homo sapiens, UniProt P14780) data and give pKi for C=C[C@H](C(=O)N[C@@H](Cc1ccccc1)C(=O)NO)[C@H](O)c1cc(OCc2ccc(OC)cc2)n(-c2ccccc2)n1 .
Key: 5.01
